Data provenance is PubChem BioAssay AID1919003.

Task for the reader: assign each of the following molecules its reported pIC50.
Tested on: 786-0 complex spheroids with HUVEC/MSC, growth % test/control
TEST_NAME: Anticancer human tumor 786-0 cell line growth inhibition [AhR];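 also: compound exposure lasted seven days before the read-out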
STATED_CONDITIONS: curve of first compound; second compound 3.16 µM
pIC50: −log10 of the molar value.

Query: Item under review: Cn1ncnc1C1c2n[nH]c(=O)c3cc(F)cc(c23)NC1c1ccc(F)cc1 (stereo not drawn) + Cc1cncc(-c2nc(NCCc3c[nH]c4ccccc34)c3ncn(C(C)C)c3n2)c1 . Reported pIC50?
Result: < 7.00

Query: Look at this molecule and give its reported pIC50. Nc1ncn(C2CC(O)C(CO)S2)c(=O)n1 (stereo not drawn) + Cc1ccccc1N=Nc1ccc(NC(=O)c2ccnn2C)c(C)c1
Result: < 6.52

Query: Quick one: pIC50 for O=C(C=Cn1cnc(-c2cc(C(F)(F)F)cc(C(F)(F)F)c2)n1)NNc1cnccn1 + Cc1cncc(-c2nc(NCCc3c[nH]c4ccccc34)c3ncn(C(C)C)c3n2)c1 ?
Result: 6.39

* * *

Test system: 786-0 complex spheroids with HUVEC/MSC, growth % test/control
TEST_NAME: Anticancer human tumor 786-0 cell line growth inhibition [AhR]; active = viability on the fitted dose curve at most 10% of control; inactive = the rest;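 also: compound exposure lasted seven days before the read-out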
STATED_CONDITIONS: second compound 0.1 µM; first compound 1 µM
Use one of these outcomes when replying: 1.0 = active, 0.0 = inactive

Query: Per the records of this test, what outcome belongs to NS(=O)(=O)OCC1CC(n2ccc3c(NC4CCc5ccccc54)ncnc32)CC1O (centres undefined) + CC(CO)NC(=O)c1cc(-c2ccc(Cl)cc2)nn(-c2cnn(C)c2)c1=O ?
Result: 0.0

Query: Could you please tell me the result logged for O=C(C=Cc1cccc(S(=O)(=O)Nc2ccccc2)c1)NO + Cc1cncc(-c2nc(NCCc3c[nH]c4ccccc34)c3ncn(C(C)C)c3n2)c1 in this assay?
Result: 0.0

Query: Name the outcome recorded for CC(C)c1c(-c2ccccc2)nc2c(C#N)c[nH]n2c1=O + Cc1ccccc1N=Nc1ccc(NC(=O)c2ccnn2C)c(C)c1 in the assay.
Result: 0.0

Query: What call does the record list for COc1cccc2c1C(=O)c1c(O)c3c(c(O)c1C2=O)CC(O)(C(=O)CO)CC3OC1CC(N)C(O)C(C)O1 (centres undefined) + CC(CO)NC(=O)c1cc(-c2ccc(Cl)cc2)nn(-c2cnn(C)c2)c1=O ?
Result: 1.0

* * *

Test system: 786-0 complex spheroids with HUVEC/MSC, growth % test/control
TEST_NAME: Anticancer human tumor 786-0 cell line growth inhibition [AhR]; active = viability on the fitted dose curve at most 10% of control; inactive = the rest;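 also: compound exposure lasted seven days before the read-out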
STATED_CONDITIONS: second compound 1 µM; first compound 3.16 µM
Answer with one of the outcomes given here: y (active), n (inactive)

Query: Each compound tested received a call. Report the one for Nc1ccn(C2OC(CO)C(O)C2(F)F)c(=O)n1 (centres undefined) + Cc1cncc(-c2nc(NCCc3c[nH]c4ccccc34)c3ncn(C(C)C)c3n2)c1 .
Result: y

Query: How did this test come out for COc1cc(Nc2ncc3c(n2)-c2ccc(Cl)cc2C(c2c(F)cccc2OC)=NC3)ccc1C(=O)O + Cc1cncc(-c2nc(NCCc3c[nH]c4ccccc34)c3ncn(C(C)C)c3n2)c1 ?
Result: n

Query: Write down the call the test reported for this compound. Item: Nc1ccccc1NC(=O)c1ccc(CNC(=O)OCc2cccnc2)cc1 + Cc1cncc(-c2nc(NCCc3c[nH]c4ccccc34)c3ncn(C(C)C)c3n2)c1
Result: n

Query: Field: outcome | Entry: COc1cccc2c1C(=O)c1c(O)c3c(c(O)c1C2=O)CC(O)(C(=O)CO)CC3OC1CC(N)C(O)C(C)O1 (centres undefined) + Cc1cncc(-c2nc(NCCc3c[nH]c4ccccc34)c3ncn(C(C)C)c3n2)c1
Result: y
